test system: Shigella Castellani LXX; assay: MIC assay (broth micro-dilution); format: cell-based; conditions: Table S11; LB broth, 37 °C, 16 h, n = 2
Bridge positions count the residues as written; N and C are the ends. Square brackets hold non-standard residues; d marks the D form. Peptide text beside a SMILES is read from it. * marks the point of attachment. Myristoyl = CCCCCCCCCCCCCC(=O)*; dOrn = NCCC[C@@H](N)C(=O)O; Orn = NCCC[C@H](N)C(=O)O; Dab = NCC[C@H](N)C(=O)O; Dap = NC[C@H](N)C(=O)O
RECORDED ENDPOINT: MIC Shigella Castellani LXX

Can you share its MIC Shigella Castellani LXX? I mean this compound: CCCCCCCCCCCCCC(=O)N[C@@H](CCCN)C(=O)N[C@H](Cc1ccc(O)cc1)C(=O)N[C@@H](C(=O)N[C@H]1C(=O)N[C@H](CCCN)C(=O)N[C@@H](CCCN)C(=O)N[C@H](C(C)C)C(=O)N[C@@H]([C@@H](C)CC)C(=O)N[C@@H](CC(C)C)C(=O)N[C@H](CCCN)C(=O)N[C@@H]([C@@H](C)O)C(=O)N[C@@H](C)C(=O)O[C@H]1C)C(C)C [synAQU6-C4] (Myristoyl-[Orn][dY][dV][dT][dOrn][Orn][dV]IL[dOrn]TA; ester 4-C) > 64 µg/mL

Quick one: MIC Shigella Castellani LXX of CCCCCCCCCCCCCC(=O)N[C@@H](Cc1ccccc1)C(=O)N[C@@H](CCCN)C(=O)N[C@H]1CCCNC(=O)CNC(=O)[C@H](CCN)NC(=O)[C@@H](Cc2ccc(O)cc2)NC(=O)[C@H](CC(C)C)NC(=O)[C@H]([C@@H](C)CC)NC(=O)[C@@H](C(C)C)NC1=O [synAQU2-C3] (Myristoyl-F[Orn][Orn][dV]IL[dY][Dab]G; lactam 3-C) ? > 64 µg/mL

I have this compound here, CCCCCCCCCCCCCC(=O)N[C@@H](CN)C(=O)N[C@H](C(=O)N[C@@H](CC(C)C)C(=O)N[C@@H](CO)C(=O)N[C@@H](CCN)C(=O)N[C@@H](CN)C(=O)N[C@@H](Cc1ccccc1)C(=O)N[C@H](C(=O)N[C@@H](CCCN)C(=O)N[C@@H](CC(N)=O)C(=O)N[C@@H](Cc1ccccc1)C(=O)O)[C@@H](C)CC)[C@@H](C)O [synAQU5-L] (Myristoyl-[Dap]TLS[Dab][Dap]FI[Orn]NF-OH) , and I need its recorded MIC Shigella Castellani LXX. 8 µg/mL

Any idea what its MIC Shigella Castellani LXX is? The compound is CCCCCCCCCCCCCC(=O)N[C@@H](CCCN)C(=O)N[C@H](Cc1ccc(O)cc1)C(=O)N[C@@H](C(=O)N[C@@H](C(=O)N[C@H](CCCN)C(=O)N[C@@H](CCCN)C(=O)N[C@@H](C(=O)N[C@H](C(=O)N[C@@H](CC(C)C)C(=O)N[C@H](CCCN)C(=O)N[C@H](C(=O)N[C@@H](C)C(=O)O)[C@@H](C)O)[C@@H](C)CC)C(C)C)[C@H](C)O)C(C)C [synAQU6-L] (Myristoyl-[Orn][dY][dV][dT][dOrn][Orn][dV]IL[dOrn]TA-OH) > 64 µg/mL

The origin of these recorded values is paper PMC12677607.
